- System: UACC-257
- test_method_notes: NCI tumour cell line growth inhibition, 48 h
Calls of active or inactive are those of the source. Cut-off read from the data, not from the text of the source: active = GI50 up to about 1.1 µM and inactive = higher.
Outcome codes: true for active, false for inactive

{"compound": "COc1ccccc1N1C(=O)/C(=C/c2ccc(N(CCC#N)CCC#N)cc2C)N=C1c1cc([N+](=O)[O-])ccc1Cl", "cat": "false"}
{"compound": "CC1=C[C@@H](C)C[C@]2(C)CC[C@H](O2)[C@]23CC[C@](C(=O)O)(C[C@H](O2)[C@@H]2O[C@@](C)(CC2=O)[C@@H](O)[C@H]2CC[C@@]4(CCC[C@@H](O4)[C@H](C)C(=O)O[C@H]4C[C@H]([C@]5(O)OCC[C@H](C)[C@@H]5O)O[C@H]4C=C1)O2)O3", "cat": "false"}
{"compound": "Sc1cnnc2ccc(Br)cc12", "cat": "false"}
{"compound": "CCCCCCCCCCC(O)C1CCC(C(O)CCC(O)C2CCC(CCCCCCC[C@H](O)CC3=C[C@@H](C)OC3=O)O2)O1 (stereo partly specified)", "cat": "true"}
{"compound": "CO[C@H]1C[C@H](O[C@H]2CC[C@]3(C=O)[C@H]4CC[C@]5(C)[C@@H](C6=CC(=O)OC6)CC[C@]5(O)[C@@H]4CC[C@]3(O)C2)O[C@H](C)[C@H]1O[C@@H]1O[C@H](CO)[C@@H](O)[C@H](O)[C@H]1O", "cat": "true"}
{"compound": "COC12OCCN(CCO)C1=CC(=O)C1(C)N=NC(C)C12 (stereo unspecified)", "cat": "false"}
{"compound": "O=P1(c2ccccc2)C(c2ccccc2)CCC1c1ccccc1 (stereo unspecified)", "cat": "false"}
{"compound": "COc1cc(C(N)=O)cc(NC(=O)/C=C/c2ccccc2)c1OC", "cat": "false"}
{"compound": "O=c1[nH]nc(Cc2ccccc2)n1/N=C\\c1ccccc1", "cat": "false"}
{"compound": "NS(=O)(=O)c1ccc(-c2ccc([As](=O)(O)O)cc2)cc1", "cat": "false"}
{"compound": "C=CCn1c(-c2ccc(Cl)cc2Cl)cs/c1=N\\c1c(C)n(C)n(-c2ccccc2)c1=O", "cat": "false"}
{"compound": "Nc1nc(N)c2c(n1)CCC(S(=O)(=O)c1ccc3ccccc3c1)C2 (stereo unspecified)", "cat": "false"}
{"compound": "S=C(NCCc1ccccn1)c1nc[nH]c1C(=S)NCCc1ccccn1", "cat": "false"}
{"compound": "CCOC(=O)C(NCc1cccc(C(F)(F)F)c1)(NC(=O)CC)C(F)(F)F (stereo unspecified)", "cat": "false"}
{"compound": "Cc1ccc(S(=O)(=O)N(CCN2C(=O)c3ccccc3C2=O)c2cc3c4c(c2)Oc2cc(N(CCN5C(=O)c6ccccc6C5=O)S(=O)(=O)c5ccc(C)cc5)cc5c2C4(C)c2c(cc(N(CCN4C(=O)c6ccccc6C4=O)S(=O)(=O)c4ccc(C)cc4)cc2O5)O3)cc1", "cat": "false"}
{"compound": "COC(=O)C1C(O)C(C)C(O)C(C)(O)/C=C\\C=C(C)C(=O)Nc2c(C)c(OC(C)=O)c3c(c2O)C(=O)C(C)=C2OCOC(=C23)C(C)=CC(C)(O)C(O)C(C)C1OC(C)=O (stereo unspecified)", "cat": "false"}
{"compound": "COc1ccc(/C=C2\\C[C@H]3[C@@H]4CCC5=C/C(=N/O)CC[C@]5(C)[C@H]4CC[C@]3(C)\\C2=N\\O)cc1OC", "cat": "false"}
{"compound": "CC(C)(C)c1cc(C(O)(C(=O)O)C(=O)O)cc(C(C)(C)C)c1O", "cat": "false"}
{"compound": "C[C@]12CC[C@@H]3c4cc(Br)c(O)c(Br)c4CC[C@H]3[C@@H]1CCC2=O", "cat": "false"}
{"compound": "CCOP(=O)(OCC)OC1CC(n2cc(C)c(=O)n(C)c2=O)OC1CO[Si](C)(C)C(C)(C)C (stereo unspecified)", "cat": "false"}
{"compound": "COC(=O)c1c(C)c2c(c(C)c1C(=O)OC)-c1c(C)ccc3ccc(C)c-2c13", "cat": "false"}
{"compound": "CCCCCCCCCCCCCCCCNc1nc(=O)n(C2CC(O)C(COP(=O)(O)OC3CC(n4cc(F)c(=O)[nH]c4=O)OC3CO)O2)cc1F (stereo unspecified)", "cat": "false"}
{"compound": "C=C(C)CNCC(=C)C.Oc1c(Cl)c(Cl)c(Cl)c(Cl)c1Cl", "cat": "false"}
{"compound": "O=C1CCSC(=S)N1c1ccc(Br)c(Cl)c1", "cat": "false"}
{"compound": "CC1NC(/C(=C/c2ccccc2O)NC(=O)c2ccccc2)OC1=O (stereo unspecified)", "cat": "false"}
{"compound": "CC/C(Cl)=N\\OC(=O)Nc1ccc(F)cc1F", "cat": "false"}

---

- Test system: NCI/ADR-RES
- test_method_notes: NCI tumour cell line growth inhibition, 48 h
Calls of active or inactive are those of the source. Rule as the data show it: active = GI50 up to about 1.1 µM and inactive = higher.
Reported GI50 values for the following compounds.

{"compound": "O=C(c1ccc(Br)cc1)n1c2ccc(Br)cc2c2nc3ccccc3nc21", "GI50": "> 100 µM (inactive)"}
{"compound": "N=C(N)SCCC(=O)CCSC(=N)N", "GI50": "91.2 µM (inactive)"}
{"compound": "COc1cccc(/N=C/c2cc3cc(Br)ccc3nc2Cl)c1", "GI50": "17.2 µM (inactive)"}
{"compound": "N=C(N)NS(=O)(=O)c1ccc(Nc2c3ccccc3nc3ccc(C(=O)Nc4ccc(S(N)(=O)=O)cc4)cc23)cc1", "GI50": "> 100 µM (inactive)"}
{"compound": "CCCCCCCCCCCCCC(=O)OCC(CCS(=O)(=O)O[C@H]1CC[C@@]2(C)C(=CC[C@@H]3C2CC[C@]2(C)C(=O)CCC32)C1)OC(=O)CCCCCCCCCCCCC (some centres undefined)", "GI50": "> 100 µM (inactive)"}
{"compound": "O=C(NNC(=S)Nc1ccc(Br)cc1)c1cc(-c2ccccc2)nc2ccccc12", "GI50": "18.6 µM (inactive)"}
{"compound": "CCCCN(CC)C(=O)C1=C(C)NC(C)=C(C(=O)N(CC)CCCC)C1", "GI50": "> 100 µM (inactive)"}
{"compound": "N#CC12COC3(CCCCC3C1(C#N)C#N)OC2=N (centres undefined)", "GI50": "28.2 µM (inactive)"}
{"compound": "CCOC(=O)/C=C(\\C(=O)OCC)n1ccc(=O)n(Cc2cnnn2COCCOC(C)=O)c1=O", "GI50": "22.9 µM (inactive)"}

---

- Tested on: HCC 2998
- test_method_notes: NCI tumour cell line growth inhibition, 48 h
Active and inactive are the calls of the source. Rule as the data show it: active = GI50 up to about 1.1 µM and inactive = higher.
Outcome codes: y for active, n for inactive

{"compound": "c1ccc(OCc2nnc(CCCCCCCCc3nnc(COc4ccccc4)o3)o2)cc1", "target_under_test": "HCC 2998", "cat": "n"}
{"compound": "CC(=O)O.CN1CCN(CN2C(=O)C3C4C=CC(C3C2=O)C2C3C(=O)N(CN5CCN(C)CC5)C(=O)C3C42)CC1 (stereo not drawn)", "target_under_test": "HCC 2998", "cat": "n"}
{"compound": "Nc1cc(OCc2ccccc2)c(OCc2ccccc2)cc1C=O", "target_under_test": "HCC 2998", "cat": "n"}
{"compound": "COc1ccc2c(c1)/C(=C\\c1c(C)nc3n1CCS3)C(=O)N2", "target_under_test": "HCC 2998", "cat": "n"}
{"compound": "COc1c2c(cc3c(CCc4ccccc4)cc(=O)oc13)CCC(C)(C)O2", "target_under_test": "HCC 2998", "cat": "n"}
{"compound": "CC(C)=CCOc1cc(NC(=S)c2ccoc2C)ccc1Cl", "target_under_test": "HCC 2998", "cat": "n"}
{"compound": "O=C(O)c1cccc(/[As]=[As]\\c2cccc(C(=O)O)c2)c1 (stereo not drawn)", "target_under_test": "HCC 2998", "cat": "n"}
{"compound": "CCCCCCCCCCCCCCCCOCC(CC(F)(F)P(=O)(O)O)OC(C)=O (stereo not drawn)", "target_under_test": "HCC 2998", "cat": "n"}
{"compound": "CCOC(=O)Cc1csc(N/N=C2\\C(=O)Nc3ccccc32)n1", "target_under_test": "HCC 2998", "cat": "n"}
{"compound": "OC/C=C(\\I)CCCOCOCc1ccccc1", "target_under_test": "HCC 2998", "cat": "n"}
{"compound": "O=C(NC(=O)c1ccccc1[N+](=O)[O-])Nc1ccc(Oc2ncc(Cl)cn2)c(C(F)(F)F)c1", "target_under_test": "HCC 2998", "cat": "y"}
{"compound": "O=C(c1ccccc1)c1ccc(N2C(=O)/C(=C/Cc3ccco3)N=C2c2ccccc2)c(N2C(=O)/C(=C/Cc3ccco3)N=C2c2ccccc2)c1", "target_under_test": "HCC 2998", "cat": "n"}
{"compound": "O=C(O)C(O)Cc1ccccn1 (stereo not drawn)", "target_under_test": "HCC 2998", "cat": "n"}
{"compound": "C=C(COC(C)=O)CC(/C=C(\\C)CCC=C(C)C)OC(C)=O (stereo not drawn)", "target_under_test": "HCC 2998", "cat": "n"}
{"compound": "N=C1OC(CN2CCN(c3ccccc3)CC2)CN1C(=O)Nc1ccccc1 (stereo not drawn)", "target_under_test": "HCC 2998", "cat": "n"}
{"compound": "O=C1c2ccccc2/N=C(/c2cc3c(cc2Cl)Sc2nccn2S3(=O)=O)OS(=O)(=O)N1c1ccccc1", "target_under_test": "HCC 2998", "cat": "n"}
{"compound": "CCCCCCCCCCCCCCCCCC(=O)OCC(C[As](=O)(O)O)OC(=O)CCCCCCCCCCCCCCCCC (stereo not drawn)", "target_under_test": "HCC 2998", "cat": "n"}
{"compound": "CC(C)C(C=O)C(O)(C(F)(F)F)C(F)(F)F (stereo not drawn)", "target_under_test": "HCC 2998", "cat": "n"}
{"compound": "CC1(C)CN=C(Nc2ccc(F)cc2)S1", "target_under_test": "HCC 2998", "cat": "n"}
{"compound": "C/C(=N/NS(=O)(=O)c1ccccc1)c1cccc[n+]1[O-]", "target_under_test": "HCC 2998", "cat": "n"}
{"compound": "O=C1C(Cl)C(c2cc3cc(Br)ccc3nc2Cl)N1c1ccc(F)c(Cl)c1 (stereo not drawn)", "target_under_test": "HCC 2998", "cat": "n"}
{"compound": "COc1ccc(/C=C2/C(=O)N(C(=O)c3ccc(Cl)cc3)N=C2C)cc1OC", "target_under_test": "HCC 2998", "cat": "n"}
{"compound": "O=c1oc2c3ccc4ccccc4c3n(CCN3CCOCC3)c2c2ccccc12", "target_under_test": "HCC 2998", "cat": "n"}
